# study.system: PCSK9 (Homo sapiens (Human), UniProt Q8NBP7)
# Sequence (Q8NBP7 153-692): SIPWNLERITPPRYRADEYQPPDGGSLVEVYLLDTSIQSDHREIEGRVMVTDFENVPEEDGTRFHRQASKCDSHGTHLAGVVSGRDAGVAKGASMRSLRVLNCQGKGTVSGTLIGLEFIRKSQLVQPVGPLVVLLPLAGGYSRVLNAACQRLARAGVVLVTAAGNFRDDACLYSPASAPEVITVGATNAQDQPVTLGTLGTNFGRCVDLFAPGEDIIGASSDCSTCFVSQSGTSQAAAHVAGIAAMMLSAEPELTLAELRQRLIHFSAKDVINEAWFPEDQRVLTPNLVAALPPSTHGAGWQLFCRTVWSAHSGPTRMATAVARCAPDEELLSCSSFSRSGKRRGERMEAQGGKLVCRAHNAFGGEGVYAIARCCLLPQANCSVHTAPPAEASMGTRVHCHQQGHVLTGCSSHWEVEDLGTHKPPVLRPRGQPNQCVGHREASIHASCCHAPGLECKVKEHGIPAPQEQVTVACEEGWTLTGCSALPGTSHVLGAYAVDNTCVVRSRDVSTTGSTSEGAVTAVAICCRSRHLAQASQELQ
# test.summary: PCSK9 Alexa FRET Standard assay (displacement of AlexaFluor647 tagged cyclic peptide Reagent A)
# Type: binding
# settings: PCSK9 Alexa FRET Standard assay, 0.5 nM PCSK9, 20 nM AF cyclic peptide Reagent A; read-out: IC50
pIC50: −log10 of the molar value. Starred links: 1 amine or outer side, 2 acyl side, 3 side chain; linkers in the order of their positions; H or OH if unused. Positions of bridges follow the written chain, without caps; N, C: chain ends. Non-standard residues stand in square brackets, D forms with d. Residues, ends and D or L forms follow the SMILES beside them. Groups on a side chain read outwards from the residue. *: point of attachment. X50 = C[C@@H](N[*:1])C(=O)C[C@@H](Cc1c[nH]c2ccc(F)cc12)C(=O)[*:2]; NHCH2C6H4(p)CH2CH2NH = c1cc(CN[*:1])ccc1CCN[*:2]; Ala(imidazol-2-yl) = N[C@@H](Cc1ncc[nH]1)C(=O)O; Trp(5-F) = N[C@@H](Cc1c[nH]c2ccc(F)cc12)C(=O)O; X3 = O=C(CCSCc1cc(F)cc(CSCCN[*:1])c1)[*:2]; Pro(cis-4-F) = O=C(O)[C@@H]1C[C@H](F)CN1; X4 = O=C(CCSCc1cccc(CSCCN[*:1])c1)[*:2]; γGlu = O=C(O)[C@H](CCC(=O)[*:2])N[*:1]; mXylylene = c1cc(C[*:1])cc(C[*:2])c1; AEF = NCCOc1ccc(C[C@H](N)C(=O)O)cc1; Palmitoyl = CCCCCCCCCCCCCCCC(=O)*; X46 = O=C(C[*:2])NCCCCC(=O)[*:1]; αMeP = C[C@@]1(C(=O)O)CCCN1; Dap = NC[C@H](N)C(=O)O; AEEA = NCCOCCOCC(=O)O; AEA = NCCOCC(=O)O; Mpa = O=C(O)CCS
Assign pIC50 to each entry below.

>  <compound>
COc1ccc(C[C@@H]2NC(=O)[C@H](Cc3cnc[nH]3)NC(=O)[C@H](CC(=O)O)NC(=O)[C@H](Cc3c[nH]c4ccc(F)cc34)NC(=O)[C@H](Cc3c[nH]c4ccc(F)cc34)NC(=O)[C@@H](C)NC(=O)[C@H](CCCCN)NC(=O)[C@@H](NC(C)=O)CCCc3cn(nn3)-c3ccc(cc3)C[C@@H](C(N)=O)NC(=O)[C@]3(C)CCCN3C2=O)cc1 [Compound 353]

>  <study.system>
PCSK9 (Homo sapiens (Human), UniProt Q8NBP7)

>  <pIC50>
4.30 to 4.68

$$$$

Look at each compound and report its pIC50.
1. COc1ccc(C[C@@H]2NC(=O)[C@H](Cc3cnc[nH]3)NC(=O)[C@H](CC(=O)O)NC(=O)[C@H](Cc3c[nH]c4ccc(F)cc34)NC(=O)[C@H](Cc3c[nH]c4ccc(F)cc34)NC(=O)[C@@H](C)NC(=O)[C@H](CNC(=O)COCCN)NC(=O)CCSCc3cc(F)cc(c3)CSCCNC(=O)[C@]3(C)CCCN3C2=O)cc1 [Compound 423] (cyclo(DHY(Me)[αMeP][X3][Dap](AEA)[dA][Trp(5-F)][Trp(5-F)]))
2. CCCCCCCCCCCCCCCC(=O)N[C@@H](CCC(=O)NCCOCCOCC(=O)NCCOCCOCC(=O)NCCCC[C@@H]1NC(=O)[C@H](Cc2c[nH]c3ccc(F)cc23)NC(=O)[C@H](Cc2c[nH]c3ccc(F)cc23)CC(=O)[C@@H](C)NC(=O)[C@H](CCCCN)NC(=O)CCSCc2cccc(c2)CSC[C@@H](C(N)=O)NC(=O)[C@]2(C)CCCN2C(=O)[C@H](Cc2ccc(O)cc2)NC(=O)[C@H]([C@@H](C)O)NC1=O)C(=O)O [Compound 101] ([Mpa]K[X50][Trp(5-F)]K([AEEA-AEEA-γGlu-Palmitoyl])TY[αMeP]C-NH2; linker 1-9 via mXylylene)
3. COc1ccc(C[C@@H]2NC(=O)[C@H](Cc3ncc[nH]3)NC(=O)[C@H](CC(=O)O)NC(=O)[C@H](Cc3c[nH]c4ccc(F)cc34)NC(=O)[C@H](Cc3c[nH]c4ccc(F)cc34)NC(=O)[C@@H](C)NC(=O)[C@H](CNC(=O)COCCOCCN)NC(=O)CCSCc3cccc(c3)CSCCNC(=O)[C@]3(C)CCCN3C2=O)cc1 [Compound 448] (cyclo(D[Ala(imidazol-2-yl)]Y(Me)[αMeP][X4][Dap](AEEA)[dA][Trp(5-F)][Trp(5-F)]))
4. COc1ccc(C[C@@H]2NC(=O)[C@H](Cc3cnc[nH]3)NC(=O)[C@H](CC(=O)O)NC(=O)[C@H](Cc3c[nH]c4ccc(F)cc34)NC(=O)[C@H](Cc3c[nH]c4ccc(F)cc34)NC(=O)[C@@H](C)NC(=O)[C@H](NC(C)=O)CCC(=O)NCc3ccc(cc3)CCNC(=O)C[C@@H](C(N)=O)NC(=O)[C@]3(C)CCCN3C2=O)cc1 [Compound 451] (Ac-[dE][dA][Trp(5-F)][Trp(5-F)]DHY(Me)[αMeP]D-NH2; linker 1-9 via NHCH2C6H4(p)CH2CH2NH)
5. COc1ccc(C[C@@H]2NC(=O)[C@H]([C@@H](C)O)NC(=O)[C@@H]3C[C@H](F)CN3C(=O)[C@H](Cc3c[nH]c4ccc(F)cc34)NC(=O)[C@H](Cc3c[nH]c4ccc(F)cc34)NC(=O)[C@@H](C)NC(=O)[C@H](CCCCN)NC(=O)CCCCNC(=O)COc3ccc(cc3)C[C@@H](C(N)=O)NC(=O)[C@]3(C)CCCN3C2=O)cc1 [Compound 117] (K[dA][Trp(5-F)][Trp(5-F)][Pro(cis-4-F)]TY(Me)[αMeP]Y-NH2; linker N-9 via X46)

# output
1: 7.00 to 9.96; 2: 7.00 to 9.96; 3: 7.00 to 9.96; 4: 6.00 to 7.00; 5: 7.00 to 9.96

Look at each compound and report its pIC50.
1. COc1ccc(C[C@@H]2NC(=O)[C@@H]3CC/C=C\CO[C@H]4C[C@@H](C(=O)N3)N(C4)C(=O)[C@H](Cc3c[nH]c4ccc(F)cc34)NC(=O)[C@H](Cc3c[nH]c4ccc(F)cc34)NC(=O)[C@@H](C)NC(=O)[C@H](C)NC(=O)[C@@H](NC(C)=O)CC(=O)NCc3ccc(cc3)C[C@@H](C(=O)O)NC(=O)[C@]3(C)CCCN3C2=O)cc1 [Compound 514]
2. COc1ccc(C[C@@H]2NC(=O)[C@H]([C@@H](C)O)NC(=O)[C@@H]3C[C@H](F)CN3C(=O)[C@H](Cc3c[nH]c4ccc(F)cc34)NC(=O)[C@H](Cc3c[nH]c4ccc(F)cc34)NC(=O)[C@@H](C)NC(=O)[C@H](CCCCN)NC(=O)[C@@H](NC(C)=O)CCCCCc3ccc(cc3)C[C@@H](C(N)=O)NC(=O)[C@]3(C)CCCN3C2=O)cc1 [Compound 141]
3. COc1ccc(C[C@@H]2NC(=O)[C@H]([C@@H](C)O)NC(=O)[C@@H]3C[C@H](F)CN3C(=O)[C@H](Cc3c[nH]c4ccc(F)cc34)NC(=O)[C@H](Cc3c[nH]c4ccc(F)cc34)NC(=O)[C@@H](C)NC(=O)[C@H](CCCCN)NC(=O)[C@@H](NC(C)=O)CC(=O)NCCOc3ccc(cc3)C[C@@H](C(N)=O)NC(=O)[C@]3(C)CCCN3C2=O)cc1 [Compound 067] (Ac-DK[dA][Trp(5-F)][Trp(5-F)][Pro(cis-4-F)]TY(Me)[αMeP][AEF]-NH2; lactam 1-10)
4. CC(C)C[C@H]1C(=O)N[C@@H](Cc2ccc(O)cc2)C(=O)N2CCC[C@@]2(C)C(=O)N[C@H](C(N)=O)CSCc2cccc(c2)CSCCC(=O)N[C@@H](CCCCN)C(=O)NCC(=O)N[C@@H](Cc2c[nH]c3ccc(F)cc23)C(=O)N[C@@H](Cc2c[nH]c3ccc(F)cc23)C(=O)N[C@H]2CCN1C2=O [Compound 472]

# output
6.00 to 7.00
6.00 to 7.00
6.00 to 7.00
7.00 to 9.96
